Data provenance is PubChem BioAssay (NCI).

- protocol.description: NCI Yeast Anticancer Drug Screen. Data for the rad50 strain (AID 155);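 note: 0% = growth of vehicle-only cultures of the same strain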
- study.conditions: S. cerevisiae rad50 strain growth inhibition; at 50.0 µM; hits give high values
Compounds without any hit were thinned out: in the full panel of roughly 79,000, 15% have a hit.
Where growth inhibition equals or exceeds 80%, the correct label is 1.0; where it does not, the label is 0.0.

Some entries whose results are on file:
structure.smiles: Cc1ccc(NC(=O)CSC(N)=O)cc1
qualitative.label: 1.0

structure.smiles: COC(=O)c1c(C)cccc1C(=O)c1ccc(C)cc1C
qualitative.label: 0.0

structure.smiles: N#[N+]c1ccc2c(S(=O)(=O)Oc3ccc(C(=O)c4ccccc4)c(OS(=O)(=O)c4cccc5c([O-])c([N+]#N)ccc45)c3)cccc2c1[O-]
qualitative.label: 1.0

structure.smiles: Clc1ccccc1CN1COc2c(ccc3cccnc23)C1
qualitative.label: 0.0

Inquiry: State whether the measured growth inhibition reaches 80%, counting equality as reaching it, for O=C(NCCc1c(-c2ccccc2)[nH]c2ccccc12)C(F)(F)F
Reply text: 0.0

====

- protocol.description: NCI Yeast Anticancer Drug Screen. Data for the mec2-1 strain (AID 157)
- study.conditions: S. cerevisiae mec2-1 strain, at 50.0 µM
Compounds without any hit were thinned out: in the full panel of roughly 79,000, 15% have a hit. Active and inactive are the calls of the source. Rule as the data show it: active = growth inhibition above about 70%; inactive = the rest.
Output constraint: value belongs to yes for active, no for inactive

For orientation, consider the following solved cases.
compound: Cc1c(N)cccc1[N+](=O)[O-]
qualitative.label: yes
//
compound: COCCCNC(=S)N/N=C/c1cc(Cl)cc(Cl)c1O
qualitative.label: yes
//
compound: Cn1c2ccccc2c2nnc(N/N=C/c3ccccn3)nc21
qualitative.label: yes
//
compound: CCOC(=O)C(=O)Nc1ccc(Cl)cc1Cl
qualitative.label: no
//
compound: CCOC(=O)NC(c1ccc(C(NC(=O)OCC)P(=O)(O)NC23CC4CC(CC(C4)C2)C3)cc1)P(=O)(O)NC12CC3CC(CC(C3)C1)C2 (stereo not drawn)
qualitative.label: yes
//
compound: O=C1C=C(Br)C(=O)C(Br)=C1
qualitative.label: yes
//
compound: CN(C)c1ccc(C(c2cc3c(cc2O)OCO3)N2CCCCC2)cc1 (stereo not drawn)
qualitative.label: yes
//
compound: O=C(OCC1OC(c2nn[nH]n2)C(OC(=O)c2ccccc2)C1OC(=O)c1ccccc1)c1ccccc1 (stereo not drawn)
qualitative.label: no
//
compound: N#CC1Oc2ccccc2N1C(=O)c1ccccc1 (stereo not drawn)
qualitative.label: no
//
compound: O=[N+]([O-])c1ccc2c(N=Nc3ccc4ccccc4c3O)c(O)cc(S(=O)(=O)O)c2c1
qualitative.label: no

Could you now consider this next compound?
Inquiry: What was the test verdict on CN1CCN(CCOC(=O)N2c3ccccc3Sc3ccccc32)CC1 ?
Reply text: no

====

Parameter: growth inhibition. Scope: all listed entries.
- protocol.description: NCI Yeast Anticancer Drug Screen. Data for the rad50 strain (AID 155);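 note: 0% = growth of vehicle-only cultures of the same strain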
- study.conditions: S. cerevisiae rad50 strain growth inhibition; at 5.0 µM (retest, dose inferred, filed as 0.5); hits give high values
This is part of a sample that, as a whole, favours compounds with a hit. Of some 79,000 tested, about 15% had one in any assay.
Entry rule: numbers only, all in %.

compound: CC(=O)O[C@]1(C(C)=O)CC[C@H]2[C@@H]3C[C@H](C)C4=CC(=O)NCC[C@]4(C)[C@H]3CC[C@@]21C
units.text: %
growth inhibition: 0

compound: COc1cc(OC)cc(C2OC3=C(Nc4ccc([N+](=O)[O-])cc4N3)C2=O)c1 (stereo not given)
units.text: %
growth inhibition: 2

compound: ON=C1c2ccccc2-c2ccccc21
units.text: %
growth inhibition: 8

compound: CCCCCCCCCC(=O)NN=C(C)C
units.text: %
growth inhibition: -129

Input CCOP(=O)(C=C=C1CCC2[C@@H]3CCc4cc(OC)ccc4C3CC[C@]12C)OCC (stereo not given in full) . Output growth inhibition: 5
